# SYSTEM_TESTED: T1, kappa-opioid receptor (KOR-EGFP) (Mus musculus, UniProt P33534)
# T1 chain: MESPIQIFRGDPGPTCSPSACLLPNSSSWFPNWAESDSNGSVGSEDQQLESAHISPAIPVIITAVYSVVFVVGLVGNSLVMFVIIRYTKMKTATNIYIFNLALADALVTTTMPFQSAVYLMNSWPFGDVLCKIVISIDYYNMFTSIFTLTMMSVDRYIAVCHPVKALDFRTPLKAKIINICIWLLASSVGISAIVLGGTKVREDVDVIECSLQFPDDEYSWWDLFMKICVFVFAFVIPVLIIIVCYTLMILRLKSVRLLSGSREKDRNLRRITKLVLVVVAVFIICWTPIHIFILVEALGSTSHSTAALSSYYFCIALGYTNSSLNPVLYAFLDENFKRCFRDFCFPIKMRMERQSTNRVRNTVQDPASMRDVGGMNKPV
# ASSAY_COMMENT: radioligand displacement ([3H]-diprenorphine)
MEASUREMENT_LABEL: Ki (nM)
Enter your answer as a number in nM; do not include the unit.

Ask: Given MAWQGLVLAACLL [dynorphin A1-13 1-13] , state its recorded Ki.
Result: 0.3
